Source: the supplement of paper PMC7877785

Assay name: self-splicing fitness, log relative to wild type (ln ratio); higher = more splicing; Tetrahymena group I intron in knt gene, E. coli kanamycin selection, DiMSum; sequences stand for … in CUCUCU…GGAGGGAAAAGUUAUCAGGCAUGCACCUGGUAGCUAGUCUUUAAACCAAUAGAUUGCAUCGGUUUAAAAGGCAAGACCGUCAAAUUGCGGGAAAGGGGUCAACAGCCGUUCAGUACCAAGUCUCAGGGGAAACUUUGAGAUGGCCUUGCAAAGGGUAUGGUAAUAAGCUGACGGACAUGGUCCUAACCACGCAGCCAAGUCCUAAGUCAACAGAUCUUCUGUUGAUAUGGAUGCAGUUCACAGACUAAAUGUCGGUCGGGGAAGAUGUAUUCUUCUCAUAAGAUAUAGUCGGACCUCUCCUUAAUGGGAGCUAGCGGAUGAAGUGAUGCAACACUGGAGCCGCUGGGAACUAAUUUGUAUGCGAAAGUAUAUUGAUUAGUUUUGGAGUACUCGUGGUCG;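 further: selection with 25 µg/mL kanamycin versus none on LB agar overnight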
Condition notes: 37 °C
I'd appreciate it if you could label each record using self-splicing fitness (ln) and these ranges: lower = under -2, middle = from -2 up to -0.2, upper = -0.2 and over

Record sequence	Label class
ACAUAGCAAUAUUACGAGCG	upper
UUGAAGCAAUAUUACGCCGU	middle
UUAUAGCAAUAUUACGUAAA	middle
CUCCAGCAAUAUUACGAAGG	lower
GUAAAGCAAUAUUACGCAGC	middle
AAUCAGCAAUAUUACGUGUC	middle
CGUAAGCAAUAUUACGUCUG	upper
GGGUAGCAAUAUUACGCUGA	upper
GUCUAGCAAUAUUACGGUGU	upper
GACAAGCAAUAUUACGGCUC	upper
AAAUAGCAAUAUUACGAUAU	middle
UCUGAGCAAUAUUACGGCAC	middle
GAUUAGCAAUAUUACGCAAU	middle
GAAAAGCAAUAUUACGCGUG	upper
GGCAAGCAAUAUUACGCUGG	lower
CCAGAGCAAUAUUACGGGUC	middle
ACUGAGCAAUAUUACGUGUU	lower
AUGCAGCAAUAUUACGUAGU	middle
GGUUAGCAAUAUUACGACGG	middle
AUACAGCAAUAUUACGGUCU	upper
